Catalogue of pKd values
tgt: T1, histidine-labeled cynomolgus monkey 4-1BB protein (cynomolgus monkey)
T1 construct: also called Monkey 4-1BB protein antigen (histidine-labeled); cynomolgus monkey 4-1BB protein and his tag (Acrobiosystem, #41B-052H4)
runDescription: BLI Octet RED96, AHC sensor, his-tagged antigen
Quick note: pKd means taking -log10 of the concentration in moles per liter.

Here are 3 binders together with their reported answers.
binder	pKd
PR001758 (antibody, human IgG1, V domains shown, HCAb, heavy chain only, human IgG1 Fc; also called 1016P0010B11) VH: EVQLLESGGGLVQLGGSLRLSCAASGFTFSRYAMTWVRQAPEKGLEWVSSISGSGDDTYYGDSVKGRFTISRDNSQNTVYLQMNSLRAEDTAVYFCAKEKAGTTGDYYYNVDVWGQGTTVTVSS	8.13
PR001830 (antibody, human IgG1, V domains shown, HCAb, heavy chain only, human IgG1 Fc; also called 1016P0014G8) VH: EVQLLESGGGLVQPGGSLRLSCTASGFTFSNYAMSWVRQAPEKGLEWVSSISGSGGSTFYADSVKGRFTISRDNSKNTLYLQMNSLRAEDTAVYFCAKEGSSETDDHYYNVDVWGQGTTVTVSS	7.74
PR001759 (antibody, human IgG1, V domains shown, HCAb, heavy chain only, human IgG1 Fc; also called 1016P0010D7) VH: EVQLLESGGGLVQPGGSLRLSCAASGFTFSSYAMSWFRQPPETGLQWVSSIGGSGGDTYYADSVKGRFTISRDNSKNTLYLQMNSLRAEDTAVYYCAKEGSNGTDDNYYDVDVWGQGTTVTVSS	7.96

Please examine the following record next.
What value of measured pKd is listed for PR001840 (antibody, human IgG1, V domains shown, HCAb, heavy chain only, human IgG1 Fc; also called 1016P0037D2) VH: EVQLVESGGGLVQPGGSLRLSCAASGFTFSSYWMHWVRQAPGKGLVWVSRINSDGSSTSYADSVQGRFTISRDNAKNTLYLQMNSLRAEDTAVYYCVRKGSSSYYHYSIEDDWGQGTLVTVSS ?
7.79
